Measured values drawn from paper PMC11932207 for this set.

target: GluA2/3 (UniProt P19491+P42263); construct: expressed in transfected cells; host or cells: HEK293T (HEK293) cells, transient co-transfection; assay: Whole-cell patch clamp recordings of heteromeric GluA2/3 AMPA receptor currents and kinetics in transfected HEK293t cells; assay type: cell-based; settings: inhibition of whole-cell peak current, concentration–response, Hill fit, read-out: IC50
Sequence (P19491 22-883 isoform P19491-2 limits assumed): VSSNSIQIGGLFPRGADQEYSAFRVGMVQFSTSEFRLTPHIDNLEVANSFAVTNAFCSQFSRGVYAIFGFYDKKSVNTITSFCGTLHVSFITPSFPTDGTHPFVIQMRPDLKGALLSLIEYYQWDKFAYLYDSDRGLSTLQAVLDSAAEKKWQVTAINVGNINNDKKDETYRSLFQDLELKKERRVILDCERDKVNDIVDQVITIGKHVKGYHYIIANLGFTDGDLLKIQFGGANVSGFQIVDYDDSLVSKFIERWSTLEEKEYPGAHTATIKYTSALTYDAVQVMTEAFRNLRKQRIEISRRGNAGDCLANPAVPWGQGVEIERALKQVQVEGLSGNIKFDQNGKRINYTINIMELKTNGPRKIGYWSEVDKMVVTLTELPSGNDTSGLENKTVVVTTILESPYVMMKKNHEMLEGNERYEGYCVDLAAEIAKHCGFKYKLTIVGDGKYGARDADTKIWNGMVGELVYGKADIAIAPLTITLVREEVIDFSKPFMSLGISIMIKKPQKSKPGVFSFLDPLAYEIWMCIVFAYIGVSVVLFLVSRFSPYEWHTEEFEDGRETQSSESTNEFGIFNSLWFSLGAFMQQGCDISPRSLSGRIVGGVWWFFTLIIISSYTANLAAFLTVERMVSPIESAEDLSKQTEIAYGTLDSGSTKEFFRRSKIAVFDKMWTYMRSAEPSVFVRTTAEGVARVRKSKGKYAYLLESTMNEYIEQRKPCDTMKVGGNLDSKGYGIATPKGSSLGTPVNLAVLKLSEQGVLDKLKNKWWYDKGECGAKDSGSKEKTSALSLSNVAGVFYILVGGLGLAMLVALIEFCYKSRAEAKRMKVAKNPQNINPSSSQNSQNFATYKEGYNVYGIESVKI
Sequence (P42263 29-894 isoform P42263-2 limits assumed): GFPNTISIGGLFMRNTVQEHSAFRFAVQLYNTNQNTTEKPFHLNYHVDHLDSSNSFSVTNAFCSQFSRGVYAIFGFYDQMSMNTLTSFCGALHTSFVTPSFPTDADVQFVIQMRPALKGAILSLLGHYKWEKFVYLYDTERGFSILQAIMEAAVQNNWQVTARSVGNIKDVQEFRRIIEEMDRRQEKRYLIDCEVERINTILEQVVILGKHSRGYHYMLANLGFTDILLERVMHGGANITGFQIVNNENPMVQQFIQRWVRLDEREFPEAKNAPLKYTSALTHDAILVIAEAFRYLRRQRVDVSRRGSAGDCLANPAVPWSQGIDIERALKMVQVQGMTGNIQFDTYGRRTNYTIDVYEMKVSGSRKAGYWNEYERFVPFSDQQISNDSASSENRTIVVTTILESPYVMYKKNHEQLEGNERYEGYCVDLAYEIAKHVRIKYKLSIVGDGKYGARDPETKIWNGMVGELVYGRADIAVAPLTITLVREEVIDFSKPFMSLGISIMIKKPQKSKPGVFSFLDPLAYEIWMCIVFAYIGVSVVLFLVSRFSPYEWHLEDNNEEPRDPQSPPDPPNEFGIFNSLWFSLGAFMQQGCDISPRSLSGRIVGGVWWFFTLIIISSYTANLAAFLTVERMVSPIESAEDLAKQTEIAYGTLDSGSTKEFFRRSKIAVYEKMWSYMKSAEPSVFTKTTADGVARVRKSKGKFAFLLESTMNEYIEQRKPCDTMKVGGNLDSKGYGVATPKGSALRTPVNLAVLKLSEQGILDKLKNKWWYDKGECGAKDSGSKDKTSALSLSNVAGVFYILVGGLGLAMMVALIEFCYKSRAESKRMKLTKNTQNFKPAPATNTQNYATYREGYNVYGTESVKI
Measured pIC50, listed per entry.
Lab note: report pIC50 as minus log10 of the concentration in molar units, number only.

Use the examples below as a reference point.
item_smiles=COc1ccc(NC(=O)c2c(-c3c(Cl)cccc3Cl)noc2C)cc1OC target_of_assay="GluA2/3 (UniProt P19491+P42263)" reading=5.24
item_smiles=Cc1onc(-c2c(Cl)cccc2Cl)c1C(=O)Nc1ccc(C(C)(C)C)cc1 target_of_assay="GluA2/3 (UniProt P19491+P42263)" reading=5.12
item_smiles=Cc1onc(-c2c(Cl)cccc2Cl)c1C(=O)Nc1ccc(OC(F)(F)F)cc1 target_of_assay="GluA2/3 (UniProt P19491+P42263)" reading=5.18

Sample COc1cc(NC(=O)c2c(-c3c(Cl)cccc3Cl)noc2C)cc(OC)c1OC ; pIC50 observed: 5.27

Sample COc1ccccc1Oc1ccc(NC(=O)c2c(-c3c(Cl)cccc3Cl)noc2C)cc1 ; pIC50 observed: 5.21

Sample COc1cc(NC(=O)c2c(-c3c(Cl)cccc3Cl)noc2C)c(OC)cc1Cl ; pIC50 observed: 5.48

Sample COc1cc(NC(=O)c2c(-c3c(Cl)cccc3Cl)noc2C)cc(OC)c1 ; pIC50 observed: 5.31

Sample Cc1onc(-c2c(F)cccc2Cl)c1C(=O)Nc1ccc(OC(F)(F)F)cc1 ; pIC50 observed: 5.15
